# Species: Rattus norvegicus
# Assay overview: Open TG-GATES - Regimen: Single
# Assay type: toxicity, organism-based, Sprague-Dawley
# Set-up: regimen Single, gender Male, age 6 weeks
# Test context: in vivo, po, 0 mg/kg, 24 h, route gavage, dose level Control
Reported endpoint: TERMINAL_BW (g)

• CC(C)Cc1ccc(C(C)C(=O)O)cc1 (configuration not stated) = 213.6
• CC[C@@H](CO)NCCN[C@@H](CC)CO = 232.7
• CCN(CC)N=O = 229.8
• O=C(O)COc1nn(Cc2ccccc2)c2ccccc12 = 229.7
• CC(CCc1ccccc1)NCC(O)c1ccc(O)c(C(N)=O)c1 (configuration not stated) = 220.3
• CC(=O)Nc1ccc2c(c1)Cc1ccccc1-2 = 237.9
• CC(=O)N1CCN(c2ccc(OCC3COC(Cn4ccnc4)(c4ccc(Cl)cc4Cl)O3)cc2)CC1 (configuration not stated) = 213.9
